- Test system: basophils in whole blood from HDM allergic donors
- Assay explanation: Basophil Activation Test (BAT)
- Format: cell-based, human
- Stated conditions: 1 ng/ml; blood from HDM allergic individuals (n=14)
Readout name: # of individuals of 14 with positive BAT test

[
  {
    "Molecule": "A023: house dust mite protein; SEQ ID NO: 23 (Der f), 24 (Der p) (protein) DPVQQRPTLRGVTVRVGPFVKENNGKFEGFIPDLVQAISEKVGFDYTLYLSPDGRYGNVISDGNVTGMIGEVYNKKADFAAADLTMTEARENYITFTEPFMINQLAALIRREDAEGLNTLEDLAKAQETFPKRKRIVLGTLRNGATNYFLSKSDDPLAKKIYEQIKADDQSVVKSISEGVERVDKQGGYAFIMESASAEHEIANNCKLTMLLDWRNLFPRKYAFALPKDSPYLEHFNNAIKQLNSEGKIAELRRKYWANNCAENKTKDDKN",
    "Measured number": 1
  },
  {
    "Molecule": "A003: house dust mite protein; SEQ ID NO: 2 (Der f), 3 (Der p), 305 (Blo t) (protein) MAIDGKYQMESSEHFEEFVKEMGLDVDMTNVDLSKTSTMEICKDGDVYHIKSETAGIAHEIKFKVGEEFEDDMNGHKFKNVVTMECDNKMVQKKTSADGGKVVNVVREFTDAGCTVKSTYNTVTWTRVYKRM",
    "Measured number": 0
  },
  {
    "Molecule": "A025: house dust mite protein; SEQ ID NO: 17 (Der f), 18 (Der p) (protein) QSLFVDYNDYSCGSSQNETNELIQEFKIFKKNINGNENFKKINDFIEKARLFRDNAAKQMLEIDQQLLTLNVIQISQRIKLENNKIQCEKLTKFSELLSMQLLAYEVGMFEFAEEIDPNIDFDRKMKNFLDETSRLFNLAEFEKLEKKFRNATSIEKLKNYIDGELVALNDYINEFLKDIIMSEFTVQSRYYLNFSIEDQVQIDSTLMTFSALKILLNDLKDYLEHLDN",
    "Measured number": 1
  },
  {
    "Molecule": "Derp2: major house dust mite allergen, group 2, Dermatophagoides pteronyssinus; control (protein, UniProt P49278 18-146, looked up) Mite group 2 allergen Der p 2: DQVDVKDCANHEIKKVLVPGCHGSEPCIIHRGKPFQLEAVFEANQNTKTAKIEIKASIDGLEVDVPGIDPNACHYMKCPLVKGQQYDIKYTWNVPKIAPKSENVVVTVKVMGDDGVLACAIATHAKIRD",
    "Measured number": 13
  },
  {
    "Molecule": "Derp1: major house dust mite allergen, group 1, Dermatophagoides pteronyssinus; control (protein, UniProt P08176 99-320, looked up) Peptidase 1: TNACSINGNAPAEIDLRQMRTVTPIRMQGGCGSCWAFSGVAATESAYLAYRNQSLDLAEQELVDCASQHGCHGDTIPRGIEYIQHNGVVQESYYRYVAREQSCRRPNAQRFGISNYCQIYPPNVNKIREALAQTHSAIAVIIGIKDLDAFRHYDGRTIIQRDNGYQPNYHAVNIVGYSNAQGVDYWIVRNSWDTNWGDNGYGYFAANIDLMMIEEYPYVVIL",
    "Measured number": 7
  },
  {
    "Molecule": "A001: house dust mite protein; SEQ ID NO: 13 (Der f), 14 (Der p); recombinant test protein (protein) KKSPDCDIERPIRECLKDGLLRYSSGQKINQFPDTIQDLNRACEELKKSETCARTFIDTCTESSYEKRSLDSLLDGIQRVMKRLCRSQTKKEKLLENVGCANSVVQDTKQCLKNYRMLVFAANKLDNKNKIMRILCCKSRKVAPCIGEAMKAKGTAVCSAKNIDYFKDVHQNIKQEMTAVVCSDFERDQCENVDVPNISESEYKDQNIFNPLRDLYKKVILG",
    "Measured number": 0
  },
  {
    "Molecule": "A019: house dust mite protein; SEQ ID NO: 1 (Der f), 4 (Der p), 315 (Blo t) (protein) QVYCNGAAIVSAARSQIGVPYSWGGGGIHGKSRGIGEGANTVGFDCSGLAQYSVYQGTHKVLARVASGQYSDPKCHHVAYGSHQPGDLVFFGNPIHHVGIVSAHGRMINAPHTGTNVREENIWSDHIANVARCW",
    "Measured number": 2
  },
  {
    "Molecule": "A024: house dust mite protein; SEQ ID NO: 11 (Der f), 12 (Der p), 318 (Blo t) (protein) MSISAHGGGLVNGIAGMENKFTVFTSGKPVSGLTVAFEGPTKPEINFNSTKDGSVDVGYIPKAGGQYKIHIKYEGKEIVGSPFKCNISGDESTHRKLTEKVKVGGPNISTGKVNQDNQLTIDCKEAGITGGISFAMEGPAKVEVSFRNNNDGTITVIYKPPTPGDYKLHLKFNDIHLPGSPYPIVVSA",
    "Measured number": 2
  },
  {
    "Molecule": "A017: house dust mite protein; SEQ ID NO: 21 (Der f), 25 (Der p), 313 (Blo t) (protein) MSSSSGKKYDFSGKVALVTGSSSGIGAAIALQFAQYGAQVTITGRDAAALESVAKRIEAESGHQPLQIVGNLLDQSLPAKLIDGTISKYGRLDFLVNNAGFSTQHRDIHDEKLMEAFDQVYGLNVRAVVQLSQLAATHLEKSKGNIINISSNLSMMPVHIIYSSSKAALDMITKTMAMEFGKKGVRVNSINPGPVATQFMRSLGMPVTFLKENEEFVKELTLLKFVAQPVEIANLASFLASDDARNMTGSIVVNDTGSLLAPRVDFKKLDEIKKK",
    "Measured number": 0
  }
]
